B1: Lysozyme C, P61626 (parent)
chain: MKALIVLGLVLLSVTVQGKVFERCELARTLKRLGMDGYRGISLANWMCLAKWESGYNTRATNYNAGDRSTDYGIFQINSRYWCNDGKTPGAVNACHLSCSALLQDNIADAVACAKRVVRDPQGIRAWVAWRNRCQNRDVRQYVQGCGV

- Variants of: B1
- CONDITION DETAILS: Homo sapiens; pH 2.83; Thermal; DSC; Gly-HCl 0.05 M; structure 1LZ1; whole UniProt chain shown
OBSERVED PROPERTY: unfolding enthalpy (calorimetric)

Known unfolding enthalpy (calorimetric) results, listed for orientation:
INSERT INTO assay_data (mutant_code, observed_property, measured) VALUES
  ('V20S', 'unfolding enthalpy (calorimetric)', '108 kcal/mol'),
  ('V20Y', 'unfolding enthalpy (calorimetric)', '108 kcal/mol'),
  ('V92S', 'unfolding enthalpy (calorimetric)', '109 kcal/mol'),
  ('V92D', 'unfolding enthalpy (calorimetric)', '107 kcal/mol');

Input V128N . Output unfolding enthalpy (calorimetric): 113 kcal/mol

meta.source: FireProtDB (doi:10.1074/jbc.m110728200)
